Listing of entries alongside the reported inhibition.
# assayTarget: Serine/threonine-protein kinase Nek7 (Homo sapiens) (UniProt Q8TDX7);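 further: figures are averaged percent inhibition of NEK7 kinase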
# Sequence (Q8TDX7 whole entry, looked up): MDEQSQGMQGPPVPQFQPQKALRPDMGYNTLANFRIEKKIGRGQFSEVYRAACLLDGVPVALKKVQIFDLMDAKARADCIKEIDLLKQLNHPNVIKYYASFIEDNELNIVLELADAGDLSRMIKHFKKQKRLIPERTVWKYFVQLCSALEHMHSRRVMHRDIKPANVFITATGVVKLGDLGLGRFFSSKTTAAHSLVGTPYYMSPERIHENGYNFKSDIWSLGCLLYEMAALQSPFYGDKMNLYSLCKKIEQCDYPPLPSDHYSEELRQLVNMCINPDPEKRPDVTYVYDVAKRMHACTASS
# conditionsUsed: at 0.1 µM
Give your result in % as a bare value.

Use these answered entries as a reference point.
molecule=CCS(=O)(=O)c1ccc(OC)c(Nc2ncc(-c3ccccc3Cl)o2)c1 propertyname=inhibition testresult=-0.08
molecule=Fc1ccc(-c2ncn(C3CCNCC3)c2-c2ccnc(Oc3ccc(Oc4ccccc4)cc3)n2)cc1 propertyname=inhibition testresult=3.94
molecule=Cc1ccc(C(=O)NC2CCC2)cc1-c1ccc(C(=O)NCC2CC2)cc1 propertyname=inhibition testresult=3.14
molecule=CN(C)c1ccc2c(c1)/C(=C/Nc1ccc(S(N)(=O)=O)cc1)C(=O)N2 propertyname=inhibition testresult=5.09

Kindly review the next molecule as well.
Data request: Lab note: need inhibition for Nc1nccc(-c2c(-c3ccc(F)cc3)ncn2C2CCC(O)CC2)n1 (stereo not given) on Serine/threonine-protein kinase Nek7 (Homo sapiens) (UniProt Q8TDX7), anyone have it?
Data returned: -2.24

====

# assayTarget: CDK3/Cyclin E (Homo sapiens) (UniProt P24864+Q00526);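 further: reported percentages are mean inhibition values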
# Sequence (P24864 whole entry, looked up): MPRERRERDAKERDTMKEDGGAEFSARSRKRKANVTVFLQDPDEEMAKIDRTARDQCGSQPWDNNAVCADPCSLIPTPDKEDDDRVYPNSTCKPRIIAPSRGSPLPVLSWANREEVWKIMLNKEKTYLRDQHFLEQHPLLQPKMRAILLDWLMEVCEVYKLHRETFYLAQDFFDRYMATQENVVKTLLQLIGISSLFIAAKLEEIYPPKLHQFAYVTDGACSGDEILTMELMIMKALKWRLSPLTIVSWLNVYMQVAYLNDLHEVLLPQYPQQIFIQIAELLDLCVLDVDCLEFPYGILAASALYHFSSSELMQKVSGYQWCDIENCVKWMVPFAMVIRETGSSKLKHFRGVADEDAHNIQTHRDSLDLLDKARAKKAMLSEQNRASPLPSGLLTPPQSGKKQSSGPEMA
# Sequence (Q00526 whole entry, looked up): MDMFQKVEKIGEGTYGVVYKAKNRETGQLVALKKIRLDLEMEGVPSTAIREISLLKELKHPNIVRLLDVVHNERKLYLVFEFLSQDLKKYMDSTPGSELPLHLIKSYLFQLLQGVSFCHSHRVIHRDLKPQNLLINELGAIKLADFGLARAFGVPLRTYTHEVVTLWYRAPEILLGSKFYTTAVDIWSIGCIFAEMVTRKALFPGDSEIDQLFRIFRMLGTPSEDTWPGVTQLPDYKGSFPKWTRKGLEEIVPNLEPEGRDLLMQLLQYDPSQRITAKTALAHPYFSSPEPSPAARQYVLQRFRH
# conditionsUsed: at 0.1 µM
The reader will find reported inhibition values listed item by item below.
The response must be a number in % with no trailing unit.

entrysmiles=COc1cc(Nc2ncc3c(C)nc(-c4cccc(Oc5ccccc5)c4)n3n2)cc(OC)c1OC assaytarget="CDK3/Cyclin E (Homo sapiens) (UniProt P24864+Q00526)" propertyname=inhibition unitofmeasurement=% testresult=0.34
entrysmiles=O=C(NCC1CC1)c1ccc(-c2cccc(C(=O)NC3CC3)c2)cc1 assaytarget="CDK3/Cyclin E (Homo sapiens) (UniProt P24864+Q00526)" propertyname=inhibition unitofmeasurement=% testresult=-0.72
entrysmiles=CN(C)c1ccc2c(c1)/C(=C/Nc1ccc(S(N)(=O)=O)cc1)C(=O)N2 assaytarget="CDK3/Cyclin E (Homo sapiens) (UniProt P24864+Q00526)" propertyname=inhibition unitofmeasurement=% testresult=5.6
entrysmiles=COc1cccc(/C=N/Nc2ncnc3c2cnn3-c2cccc(OC)c2)c1 assaytarget="CDK3/Cyclin E (Homo sapiens) (UniProt P24864+Q00526)" propertyname=inhibition unitofmeasurement=% testresult=-2.31

Shifting focus to the molecule that follows.
Data request: Fill in the recorded inhibition for this molecule, with CDK3/Cyclin E (Homo sapiens) (UniProt P24864+Q00526) as test system: O=C1NC(=O)C(c2cccc(Cl)c2)=C1Nc1ccc(Cl)c(C(=O)O)c1
Data returned: 3.54

====

# assayTarget: Mitogen-activated protein kinase 12 (Homo sapiens);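 further: values are averaged p38gamma kinase inhibition readings, compounds tested at 1 µM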
# Sequence (whole entry): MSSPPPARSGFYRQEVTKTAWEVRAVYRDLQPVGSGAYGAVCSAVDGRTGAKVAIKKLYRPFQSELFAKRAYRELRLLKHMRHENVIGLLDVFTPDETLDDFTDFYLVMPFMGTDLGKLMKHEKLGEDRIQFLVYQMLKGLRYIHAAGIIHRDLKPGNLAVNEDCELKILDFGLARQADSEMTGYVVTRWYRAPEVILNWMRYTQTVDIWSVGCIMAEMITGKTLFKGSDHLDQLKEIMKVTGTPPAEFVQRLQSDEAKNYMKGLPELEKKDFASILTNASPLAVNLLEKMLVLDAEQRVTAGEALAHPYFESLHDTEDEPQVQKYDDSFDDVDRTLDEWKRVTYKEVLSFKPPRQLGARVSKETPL
# conditionsUsed: at 1 µM
propertyName: inhibition (%)
Please give a number only; it is taken to be in %.

Past entries and their recorded results:
compound=CN(C)CCOc1ccc(-c2cc(-c3ccc4c(c3)CCC4=NO)c(-c3ccncc3)o2)cc1 propertyname=inhibition unitofmeasurement=% testresult=-0.32
compound=NS(=O)(=O)c1ccc(N/N=C2\C(=O)Nc3ccc(C(=O)NCCCn4ccnc4)cc32)cc1 propertyname=inhibition unitofmeasurement=% testresult=2.75
compound=COc1ccc2cc(-c3c(-c4ccncc4)nc(-c4ccc(S(C)(=O)=O)cc4C)n3C)ccc2c1 propertyname=inhibition unitofmeasurement=% testresult=3.33
compound=Fc1ccc(-c2nc3n(c2-c2ccncc2)CCS3)cc1 propertyname=inhibition unitofmeasurement=% testresult=3.41
compound=COc1cc(C)c(N(C)C(=O)CN(C)C)cc1Nc1nc(Nc2cccc(F)c2C(N)=O)c2cc[nH]c2n1 propertyname=inhibition unitofmeasurement=% testresult=1.09

Data request: Which inhibition is listed for COc1ccc2ncn(-c3cc(O[C@H](C)c4ccccc4Cl)c(C(N)=O)s3)c2c1 ?
Data returned: 4.09

Data request: Entry O=C(Nc1ccc(Oc2ccc3[nH]c(NC(=O)c4ccccc4)nc3c2)cc1)Nc1cc(C(F)(F)F)ccc1F : reported inhibition = ?
Data returned: 3.12

Data request: Please look up its inhibition: NC(=O)c1cc(-c2ccc(F)cc2)cc(-c2ccncc2)c1N
Data returned: 3.29

Data request: Recorded inhibition of Cc1ccc(NC(=O)c2ccoc2)cc1-c1ccc(C(=O)NCC2CC2)cc1 , please.
Data returned: 1.97

Data request: # get_value(readout='inhibition', item= Cc1ccc(C(=O)NC2CCC2)cc1-c1ccc(C(=O)NCC2CC2)cc1 )
Data returned: 1.52

Data request: # lookup: inhibition of Nc1nccc(-c2c(-c3ccc(F)cc3)ncn2C2CCC(O)CC2)n1 (stereo unspecified)
Data returned: -0.94

Data request: Fill in the blank: the reported inhibition of COc1ccc(C2=C(N3CCc4ccccc43)C(=O)NC2=O)cc1 is ____.
Data returned: 3.4

Data request: Consider the compound Clc1ccc(CNc2nccc(-c3cnn4ncccc34)n2)cc1 and give its measured inhibition.
Data returned: 1.18

Data request: I would be grateful if you could share the reported inhibition for COc1cc2ncn(-c3cc(OCCc4ccccc4)c(C(N)=O)s3)c2cc1OC .
Data returned: 1.89

Data request: Query: inhibition; subject: CN(C)c1ccc2c(c1)/C(=C/Nc1ccc(S(N)(=O)=O)cc1)C(=O)N2
Data returned: 1.82

Data request: Given O=C1NC(=O)C(c2cccc(Cl)c2)=C1Nc1ccc(Cl)c(C(=O)O)c1 , state its recorded inhibition.
Data returned: 1.67

Data request: Endpoint output: inhibition of Cc1ccc(C(=O)NC(C)C)cc1-c1ccc(C(=O)NCC2CC2)cc1 . Value?
Data returned: -1.93

Data request: Any idea what inhibition was measured for FC(F)(F)c1cccc(Nc2nccc(-c3cnn4nc(-c5ccccc5)ccc34)n2)c1 ?
Data returned: 1.51

Data request: What measured inhibition goes with O=C1Nc2ccccc2/C1=C/Nc1ccc(-n2cncn2)cc1 ?
Data returned: 3.66

Data request: For the compound COc1cccc(-n2cnc3c(N/N=C/c4ccncc4)ncnc32)c1 , what inhibition is on record?
Data returned: -1.27

Data request: Need inhibition, item CCc1nccc2c1nc(-c1nonc1N)n2CC
Data returned: 3.91
